Below, each entry is listed with its recorded Percentage of specifically binding cells (M2/(M1 + M2)).
- assayed_system: T1, human CCR7 expressed on CHO-K1 cells (human CCR7 gene-introduced stable expression cell) (human, UniProt P32248 25-378)
- T1 construct: also called hCCR7; hCCR7 gene-introduced cell
- T1 sequence: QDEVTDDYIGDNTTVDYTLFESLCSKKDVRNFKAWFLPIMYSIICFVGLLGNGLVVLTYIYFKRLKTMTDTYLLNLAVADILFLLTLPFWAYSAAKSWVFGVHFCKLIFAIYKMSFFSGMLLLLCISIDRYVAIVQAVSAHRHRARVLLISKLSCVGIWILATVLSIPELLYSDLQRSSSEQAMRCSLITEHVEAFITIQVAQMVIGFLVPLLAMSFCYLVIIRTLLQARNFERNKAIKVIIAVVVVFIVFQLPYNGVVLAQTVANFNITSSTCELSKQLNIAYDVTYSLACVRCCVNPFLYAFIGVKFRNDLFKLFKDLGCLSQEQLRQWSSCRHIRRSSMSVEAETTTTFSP
- protocol_details: flow cytometry, 10 µg/mL antibody on hCCR7 gene-introduced CHO-K1 cells, PE anti-mouse IgG
metric_name: Percentage of specifically binding cells (M2/(M1 + M2)) (%)

[
  {
    "binder": "anti-human CCR7 monoclonal antibody R7-18 (hybridoma FERM BP-11374) (antibody, IgG1, V domains shown, Mouse monoclonal antibody from hybridoma) VH: EVQLQQSGPDLVKPGASVKISCKASGYSFTGYYMHWVKQSHGKSLEWIGRVNPNNGGTSYNKKFKVKAILTVDRSSSTAYMEFRSLTLEDSAVYYCARSESNNFYAMDYWGQGKSVTVSS VL: DILMTQTPLSLPVSLGDQVSISCRSSQSLVHSNGNTYLCWYLQKPGQSPKLLIYRVSNRFSGVPDRFSGSGSGTDFTLKISRVEAEDLGVYFCFQGSHVPHTFGSGTK",
    "endpoint_result": 100
  },
  {
    "binder": "anti-human CCR7 monoclonal antibody R7-01 (hybridoma FERM BP-11369) (antibody, IgG1, V domains shown, Mouse monoclonal antibody purified from hybridoma supernatant on protein G) VH: EVQLQQSGPELVKPGTSVKMSCKGSGYTFTDYYINWVRQSHGKSLEWIGRVNPGNGGTSYNQRFKGKATLTVDKFLSTAFMQLNSLTSEDSAVYFCARTGTYYNYDRGGFAYWGHGTLVTVSA VL: DVLLTQSPVSLPVSLGDQASISCRCSQNIVHINGNTYLEWFLQKPGQSPKLLIYKVSNRFSGVPDRFSGSGSGTDFTLKIRRVEAEDLGVYYCFQGSHVPHTFGSGTK",
    "endpoint_result": 99.8
  },
  {
    "binder": "anti-human CCR7 monoclonal antibody R7-47 (hybridoma FERM BP-11376) (antibody, IgG1, V domains shown, Mouse monoclonal antibody from hybridoma) VH: EVQLQQSGPDLVKPGTSVKISCKASGYKFTDFNMDWVRQRHGKSLEWIGDVNPQNGEIFYNQKFRGKATLTVVKSSSTTYLELRSLTSEDTAVYFCTRLEFDYTGSNGFAYWGQGTLVTVSA VL: DILMTQTPLSLPVSLGDQASISCRSSQTLVHRNGNTYLEWYLQKPGQSPKLLIYKVSNRFSGVPDRFSGRGSGTDFTLKISRVEAEDQGIYYCFQGSHDPWTFGGGTK",
    "endpoint_result": 99.9
  }
]

These entries and their values trace back to patent US20130195869A1.
